Tested on: human PDE4
Test: PDE4 inhibition, in vitro enzymatic IMAP FP assay
Format: biochemical
Conditions: PDE4 partially purified from undifferentiated human monocytic cells (U-937); fluorescently labeled cAMP substrate; 90 minutes at room temperature; fluorescence polarization
pIC50: −log10 of the molar value.
pIC50 values by entry

{"MOLECULE": "CC[C@H]1OC(=O)[C@H](C)[C@@H](O)[C@H](C)[C@@H](O[C@@H]2O[C@H](C)C=C[C@H]2O)[C@](C)(OC)C[C@@H](C)C(=O)[C@H](C)[C@H]2[C@H](SCCn3cnc4c(N)ncnc43)C(=O)O[C@@]21C (stereo in doubt)", "pIC50": 5.32}
{"MOLECULE": "CC[C@H]1OC(=O)[C@H](C)[C@@H](O)[C@H](C)[C@@H](O[C@@H]2O[C@H](C)C[C@@H](OC)[C@@H]2N(C)C)[C@](C)(OC)C[C@@H](C)C(=O)[C@H](C)[C@H]2[C@H](SCCN(Cc3c(Cl)cncc3Cl)c3ccc(OC)c(OC4CCCC4)c3)C(=O)O[C@@]21C (stereo in doubt)", "pIC50": 6.66}
{"MOLECULE": "CC[C@H]1OC(=O)[C@H](C)[C@@H](O[C@H]2C[C@@](C)(OC)[C@@H](O)[C@H](C)O2)[C@H](C)[C@@H](O[C@@H]2O[C@H](C)C[C@@H](OC)[C@@H]2N(C)C)[C@](C)(OC)C[C@@H](C)C(=O)[C@H](C)[C@H]2[C@H](SCCN(Cc3c(Cl)cncc3Cl)c3ccc(OC)c(OC4CCCC4)c3)C(=O)O[C@@]21C (stereo in doubt)", "pIC50": 6.85}
{"MOLECULE": "CC[C@H]1OC(=O)[C@H](C)[C@@H](O[C@H]2C[C@@](C)(OC)[C@@H](O)[C@H](C)O2)[C@H](C)[C@@H](O[C@@H]2O[C@H](C)C[C@H](N(C)CC(C)C)[C@H]2O)[C@](C)(OC)C[C@@H](C)C(=O)[C@H](C)[C@H]2[C@H](SCCn3cnc4c(N)ncnc43)C(=O)O[C@@]21C (stereo in doubt)", "pIC50": 5.55}
{"MOLECULE": "CC[C@H]1OC(=O)[C@H](C)[C@@H](O)[C@H](C)[C@@H](O[C@@H]2O[C@H](C)C[C@@H](N3CCOCC3)[C@@H]2N(C)C)[C@](C)(OC)C[C@@H](C)C(=O)[C@H](C)[C@H]2[C@H](SCCN(Cc3c(Cl)cncc3Cl)c3ccc(OC)c(OC4CCCC4)c3)C(=O)O[C@@]21C (stereo in doubt)", "pIC50": 6.66}
{"MOLECULE": "CC[C@H]1OC(=O)[C@H](C)[C@@H](O)[C@H](C)[C@@H](O[C@@H]2O[C@H](C)C[C@H](N(C)C)[C@H]2OC)[C@](C)(OC)C[C@@H](C)C(=O)[C@H](C)[C@H]2[C@H](SCCN(Cc3c(Cl)cncc3Cl)c3ccc(OC)c(OC4CCCC4)c3)C(=O)O[C@@]21C (stereo in doubt)", "pIC50": 6.52}
{"MOLECULE": "CC[C@H]1OC(=O)[C@H](C)[C@@H](O[C@H]2C[C@@](C)(OC)[C@@H](O)[C@H](C)O2)[C@H](C)[C@@H](O[C@@H]2O[C@H](C)C[C@H](N(C)C(C)=O)[C@H]2O)[C@](C)(OC)C[C@@H](C)C(=O)[C@H](C)[C@H]2[C@H](SCCOc3cc(C(=O)Nc4c(Cl)cncc4Cl)ccc3OC)C(=O)O[C@@]21C (stereo in doubt)", "pIC50": 8.57}
{"MOLECULE": "CC[C@H]1OC(=O)[C@H](C)[C@@H](O[C@H]2C[C@@](C)(OC)[C@@H](O)[C@H](C)O2)[C@H](C)[C@@H](O[C@@H]2O[C@H](C)C[C@H](N(C)CC(C)C)[C@H]2O)[C@](C)(OC)C[C@@H](C)C(=O)[C@H](C)[C@H]2[C@H](SCCN(C(=O)c3ccncc3)c3ccc(OC)c(OC4CCCC4)c3)C(=O)O[C@@]21C (stereo in doubt)", "pIC50": 4.87}
{"MOLECULE": "CC[C@H]1OC(=O)[C@H](C)[C@@H](O[C@H]2C[C@@](C)(OC)[C@@H](O)[C@H](C)O2)[C@H](C)[C@@H](O[C@@H]2O[C@H](C)C[C@@H](OC)[C@@H]2N(C)C)[C@](C)(OC)C[C@@H](C)C(=O)[C@H](C)[C@H]2[C@H](SCCN(Cc3ccncc3)c3ccc(OC)c(OC4CCCC4)c3)C(=O)O[C@@]21C (stereo in doubt)", "pIC50": 5.85}
{"MOLECULE": "CC[C@H]1OC(=O)[C@H](C)[C@@H](O[C@H]2C[C@@](C)(OC)[C@@H](O)[C@H](C)O2)[C@H](C)[C@@H](O[C@@H]2O[C@H](C)C[C@H](N(C)C(=O)N3CCOCC3)[C@H]2O)[C@](C)(OC)C[C@@H](C)C(=O)[C@H](C)[C@H]2[C@H](SCCCOc3cc(C(=O)Nc4c(Cl)cncc4Cl)ccc3OC)C(=O)O[C@@]21C (stereo in doubt)", "pIC50": 6.66}
{"MOLECULE": "CC[C@H]1OC(=O)[C@H](C)[C@@H](O[C@H]2C[C@@](C)(OC)[C@@H](O)[C@H](C)O2)[C@H](C)[C@@H](O[C@@H]2O[C@H](C)C[C@H](N(C)C(C)=O)[C@H]2O)[C@](C)(OC)C[C@@H](C)C(=O)[C@H](C)[C@H]2[C@H](SCCN(Cc3c(Cl)cncc3Cl)c3ccc(OC)c(OC4CCCC4)c3)C(=O)O[C@@]21C", "pIC50": 7.51}
{"MOLECULE": "CC[C@H]1OC(=O)[C@H](C)[C@@H](O[C@H]2C[C@@](C)(OC)[C@@H](O)[C@H](C)O2)[C@H](C)[C@@H](O[C@@H]2O[C@H](C)C[C@@H](OC)[C@@H]2N(C)C)[C@](C)(OC)C[C@@H](C)C(=O)[C@H](C)[C@H]2[C@H](SCCn3cnc4c(N)ncc(C(=O)Nc5c(Cl)cncc5Cl)c43)C(=O)O[C@@]21C (stereo in doubt)", "pIC50": 6.96}
